Measured values drawn from ChEMBL document CHEMBL4422630 for this set.

# method-description: Protein binding in mouse plasma
# Format: ADME, cell-free
# experimental-context: read-out: PPB (converted)
Reported values of fraction unbound for individual entries
readout-label: fraction unbound

mol: O=C(Cc1ccccc1)Nc1ccc(-c2nc3cc(NC(=O)Cc4ccccc4)ccc3[nH]2)cc1
data-value: 0.002
--
mol: Cc1ccc(S(=O)(=O)Cc2nc(-c3ccc(C(=O)NCc4cccnc4)cc3)oc2C)cc1
data-value: 0.023

----------
EC50 by entry:
# Tested on: UoC-B1
# method-description: Antiproliferative activity against human UOCB1 assessed as reduction in cell viability after 72 hrs by CellTiter-Glo assay
# Assay type: functional, cell-based
# experimental-context: UoC-B1, 72 h

molecule: COc1ccc(O)c(-c2cc(-c3cc(Cl)ccc3O)[nH]n2)c1
measure-unit: µM
rel: =
EC50: 13.6
--
molecule: COc1ccc(O)c(-c2cc(-c3ccc(Cl)cc3)[nH]n2)c1
measure-unit: µM
rel: =
EC50: 10.6
--
molecule: COc1ccc(-c2[nH]nc(C)c2-c2ccc(OC)c(O)c2)c(O)c1
measure-unit: µM
rel: =
EC50: 6.1
--
molecule: c1ccc2[nH]c(-c3ccc(-c4nc5ccccc5[nH]4)nc3)nc2c1
measure-unit: µM
rel: >
EC50: 43.3
--
molecule: Cc1ccc(S(=O)(=O)Cc2nc(-c3ccc(C(=O)NCc4cccnc4)cc3)oc2C)cc1
measure-unit: µM
rel: >
EC50: 55
--
molecule: NC(=O)c1sccc1Nc1[nH]c(Nc2cccc(OC(F)(F)F)c2)nc2nncc1-2
measure-unit: µM
rel: =
EC50: 12.9
--
molecule: CS(=O)(=O)c1ccc(-c2cccc3c2OC(CNC(=O)c2ccccc2F)C3)cc1 (stereo not drawn)
measure-unit: µM
rel: >
EC50: 43.3
--
molecule: O=C(Cc1ccccc1)Nc1ccc(-c2nc3cc(NC(=O)Cc4ccccc4)ccc3[nH]2)cc1
measure-unit: µM
rel: >
EC50: 43.3
--
molecule: CCN(CC)c1ccc(-n2cnnc2-c2cccc(O)c2)cc1
measure-unit: µM
rel: =
EC50: 1.78
--
molecule: CC(C)C(=O)Nc1ccc2oc(-c3ccc(C(C)(C)C)cc3)nc2c1
measure-unit: µM
rel: >
EC50: 43.3
--
molecule: O=C(c1cc(-c2csc(-c3ccc(O)cc3)n2)c[nH]1)N1CCCC1
measure-unit: µM
rel: >
EC50: 43.3
--
molecule: COc1ccc(O)c(C(=O)NCCc2ccc(-c3cnc(C)s3)cc2)c1
measure-unit: µM
rel: =
EC50: 24.7
